Target: T1, his-tagged cTfR1 (Acro Biosystems p/n TFR-C524a) (cynomolgus monkey, UniProt H9EXL1 89-760 (rhesus entry))
T1 construct: Bought reagent of the SPR assay
T1 sequence (chain, as listed by the source): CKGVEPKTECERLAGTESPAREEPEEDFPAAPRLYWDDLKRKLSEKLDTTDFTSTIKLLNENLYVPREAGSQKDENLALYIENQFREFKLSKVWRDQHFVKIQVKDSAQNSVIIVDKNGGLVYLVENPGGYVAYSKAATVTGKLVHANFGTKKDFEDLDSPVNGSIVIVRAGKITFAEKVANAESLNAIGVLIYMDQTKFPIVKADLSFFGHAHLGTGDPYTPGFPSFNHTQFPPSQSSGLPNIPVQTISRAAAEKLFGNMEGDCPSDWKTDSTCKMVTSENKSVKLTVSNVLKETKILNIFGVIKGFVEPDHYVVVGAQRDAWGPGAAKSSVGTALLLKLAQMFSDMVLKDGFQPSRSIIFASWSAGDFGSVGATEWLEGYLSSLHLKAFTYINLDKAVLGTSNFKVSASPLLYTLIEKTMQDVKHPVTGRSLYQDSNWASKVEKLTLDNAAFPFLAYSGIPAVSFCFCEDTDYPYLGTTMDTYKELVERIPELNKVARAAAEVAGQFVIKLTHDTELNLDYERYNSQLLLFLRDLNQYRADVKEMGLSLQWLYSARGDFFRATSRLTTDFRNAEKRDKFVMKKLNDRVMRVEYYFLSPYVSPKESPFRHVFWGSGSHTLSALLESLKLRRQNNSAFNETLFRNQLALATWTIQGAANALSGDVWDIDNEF
Assay: SPR, Biacore X100, His-tagged TfR1 captured by anti-His
pKd: −log10 of the molar value.
Recorded pKd, one value per entry.
PARAMETER_MEASURED: pKd

1) Fab0061 (Fab, V domains shown) VH: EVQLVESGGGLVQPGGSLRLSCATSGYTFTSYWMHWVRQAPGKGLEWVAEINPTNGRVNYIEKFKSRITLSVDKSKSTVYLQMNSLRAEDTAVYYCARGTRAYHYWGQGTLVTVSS VL: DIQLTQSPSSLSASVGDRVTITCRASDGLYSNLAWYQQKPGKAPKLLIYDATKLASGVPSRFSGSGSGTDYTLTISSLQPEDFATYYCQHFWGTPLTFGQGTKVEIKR = 8.76
2) Fab0002 (Fab, V domains shown) VH: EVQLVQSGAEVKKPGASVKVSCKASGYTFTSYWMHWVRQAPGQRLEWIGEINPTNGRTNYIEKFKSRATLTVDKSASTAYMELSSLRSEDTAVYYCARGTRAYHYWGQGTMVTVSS VL: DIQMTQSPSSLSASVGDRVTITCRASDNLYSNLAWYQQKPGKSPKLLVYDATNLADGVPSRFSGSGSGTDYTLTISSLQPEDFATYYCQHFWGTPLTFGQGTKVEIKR = 7.60
3) Fab0072 (Fab, V domains shown) VH: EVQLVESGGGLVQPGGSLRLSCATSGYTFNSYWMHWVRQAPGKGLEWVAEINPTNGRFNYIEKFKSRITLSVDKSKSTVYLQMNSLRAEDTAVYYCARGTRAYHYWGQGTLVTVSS VL: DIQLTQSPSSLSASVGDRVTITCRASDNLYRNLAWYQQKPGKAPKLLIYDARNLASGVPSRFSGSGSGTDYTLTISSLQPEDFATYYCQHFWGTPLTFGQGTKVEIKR = 8.41
